ASSAYED_SYSTEM: cdc2/cyclinB (Homo sapiens, UniProt P06493)
Sequence (P06493 whole entry): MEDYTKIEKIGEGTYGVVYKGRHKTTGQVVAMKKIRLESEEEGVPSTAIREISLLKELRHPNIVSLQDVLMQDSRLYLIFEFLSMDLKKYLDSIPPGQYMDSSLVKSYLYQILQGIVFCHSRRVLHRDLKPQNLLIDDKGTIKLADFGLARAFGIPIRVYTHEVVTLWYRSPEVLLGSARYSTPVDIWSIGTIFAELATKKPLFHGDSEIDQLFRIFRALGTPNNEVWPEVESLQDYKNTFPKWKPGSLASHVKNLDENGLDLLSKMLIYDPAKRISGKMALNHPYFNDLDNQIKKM
Sequence (P14635 whole entry, further chain): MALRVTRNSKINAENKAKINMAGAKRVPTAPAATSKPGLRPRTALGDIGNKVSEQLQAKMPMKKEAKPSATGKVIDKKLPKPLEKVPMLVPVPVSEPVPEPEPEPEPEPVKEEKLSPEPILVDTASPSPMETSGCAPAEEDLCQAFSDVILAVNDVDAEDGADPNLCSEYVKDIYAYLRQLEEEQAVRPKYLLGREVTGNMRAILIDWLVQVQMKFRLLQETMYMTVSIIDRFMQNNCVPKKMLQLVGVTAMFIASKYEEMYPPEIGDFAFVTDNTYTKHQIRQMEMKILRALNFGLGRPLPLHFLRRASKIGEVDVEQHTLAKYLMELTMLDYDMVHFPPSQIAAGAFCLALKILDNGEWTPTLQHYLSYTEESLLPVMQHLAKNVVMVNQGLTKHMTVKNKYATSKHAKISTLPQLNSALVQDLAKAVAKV
PROTOCOL_SUMMARY: Cyclin-Dependent Kinase Assay cdc2/cyclinB

SAMPLE_SMILES: CCCCn1c(=O)ccc2cnc(Nc3ccc(F)c(C)c3)nc21
ASSAYED_SYSTEM: cdc2/cyclinB (Homo sapiens, UniProt P06493)
IC50 [nM]: 140
//
SAMPLE_SMILES: O=c1ccc2cnc(Nc3cc(Cl)c(O)c(Cl)c3)nc2n1CC1CC1
ASSAYED_SYSTEM: cdc2/cyclinB (Homo sapiens, UniProt P06493)
IC50 [nM]: 101
//
SAMPLE_SMILES: CCCn1c(=O)ccc2cnc(Nc3ccc(OC)cc3)nc21
ASSAYED_SYSTEM: cdc2/cyclinB (Homo sapiens, UniProt P06493)
IC50 [nM]: 320
//
SAMPLE_SMILES: O=c1ccc2cnc(Nc3ccc4[nH]ccc4c3)nc2n1CC(F)(F)F
ASSAYED_SYSTEM: cdc2/cyclinB (Homo sapiens, UniProt P06493)
IC50 [nM]: 960
//
SAMPLE_SMILES: CCCn1c(=O)ccc2cnc(Nc3cc(C(F)(F)F)ccc3F)nc21
ASSAYED_SYSTEM: cdc2/cyclinB (Homo sapiens, UniProt P06493)
IC50 [nM]: 1760
//
SAMPLE_SMILES: CCCn1c(=O)ccc2cnc(Nc3ccc(S(N)(=O)=O)cc3)nc21
ASSAYED_SYSTEM: cdc2/cyclinB (Homo sapiens, UniProt P06493)
IC50 [nM]: 88.4
//
SAMPLE_SMILES: CCCn1c(=O)ccc2cnc(Nc3ccc4[nH]ccc4c3)nc21
ASSAYED_SYSTEM: cdc2/cyclinB (Homo sapiens, UniProt P06493)
IC50 [nM]: 82
//
SAMPLE_SMILES: CCC(CC)n1c(=O)ccc2cnc(Nc3ccc(Br)c(Cl)c3)nc21
ASSAYED_SYSTEM: cdc2/cyclinB (Homo sapiens, UniProt P06493)
IC50 [nM]: 330
//
SAMPLE_SMILES: CC(=O)Nc1cc(Nc2ncc3ccc(=O)n(CC4CC4)c3n2)ccc1C#N
ASSAYED_SYSTEM: cdc2/cyclinB (Homo sapiens, UniProt P06493)
IC50 [nM]: 290
//
SAMPLE_SMILES: CCCn1c(=O)ccc2cnc(Nc3ccccc3)nc21
ASSAYED_SYSTEM: cdc2/cyclinB (Homo sapiens, UniProt P06493)
IC50 [nM]: 425
//
SAMPLE_SMILES: O=c1ccc2cnc(Nc3cc(Cl)c(O)c(Cl)c3)nc2n1CC(F)(F)F
ASSAYED_SYSTEM: cdc2/cyclinB (Homo sapiens, UniProt P06493)
IC50 [nM]: 455
//
SAMPLE_SMILES: CCCCn1c(=O)ccc2cnc(Nc3cc(C)cc(C)c3)nc21
ASSAYED_SYSTEM: cdc2/cyclinB (Homo sapiens, UniProt P06493)
IC50 [nM]: 63
//
SAMPLE_SMILES: CCCn1c(=O)ccc2cnc(Nc3ccc(F)c(F)c3)nc21
ASSAYED_SYSTEM: cdc2/cyclinB (Homo sapiens, UniProt P06493)
IC50 [nM]: 280
//
SAMPLE_SMILES: CCn1c(=O)ccc2cnc(Nc3cccc(C(F)(F)F)c3)nc21
ASSAYED_SYSTEM: cdc2/cyclinB (Homo sapiens, UniProt P06493)
IC50 [nM]: 550
//
SAMPLE_SMILES: CCn1c(=O)ccc2cnc(Nc3ccc(F)c(C(F)(F)F)c3)nc21
ASSAYED_SYSTEM: cdc2/cyclinB (Homo sapiens, UniProt P06493)
IC50 [nM]: 430
//
SAMPLE_SMILES: CCn1c(=O)ccc2cnc(Nc3cc(OC)cc(C(F)(F)F)c3)nc21
ASSAYED_SYSTEM: cdc2/cyclinB (Homo sapiens, UniProt P06493)
IC50 [nM]: 620
//
SAMPLE_SMILES: CCCn1c(=O)ccc2cnc(Nc3cc(C)cc(C)c3)nc21
ASSAYED_SYSTEM: cdc2/cyclinB (Homo sapiens, UniProt P06493)
IC50 [nM]: 61
//
SAMPLE_SMILES: CCC(CC)n1c(=O)ccc2cnc(Nc3ccc(C#N)cc3)nc21
ASSAYED_SYSTEM: cdc2/cyclinB (Homo sapiens, UniProt P06493)
IC50 [nM]: 192
//
SAMPLE_SMILES: CCCn1c(=O)ccc2cnc(Nc3ccc(Br)c(Cl)c3)nc21
ASSAYED_SYSTEM: cdc2/cyclinB (Homo sapiens, UniProt P06493)
IC50 [nM]: 520

----------
ASSAYED_SYSTEM: cdc2/cyclinB (Homo sapiens, UniProt P06493)
PROTOCOL_SUMMARY: Cyclin-Dependent Kinase Assay cdc2/cyclinB
pIC50: −log10 of the molar value.

COMPOUND: CC(C)(C)OC(=O)Nc1ccc(Nc2ncc3ccc(=O)n(CC4CC4)c3n2)cc1 [Example 565]
pIC50: 6.44
--
COMPOUND: CCC(CC)n1c(=O)ccc2cnc(Nc3ccc(C)c(F)c3)nc21 [Example 482]
pIC50: 6.67
--
COMPOUND: CC(C)n1c(=O)ccc2cnc(Nc3ccc(OC(F)(F)F)cc3)nc21 [Example 444]
pIC50: 6.28
--
COMPOUND: CCCCn1c(=O)ccc2cnc(Nc3ccc(O)c(Cl)c3)nc21 [Example 383]
pIC50: 7.34
--
COMPOUND: CCn1c(=O)ccc2cnc(Nc3ccc4[nH]ccc4c3)nc21 [Example 621]
pIC50: 6.27
--
COMPOUND: CC(C)(C)OC(=O)Nc1ccc(Nc2ncc3ccc(=O)n(C4CCCC4)c3n2)cc1 [Example 535]
pIC50: 6.84
--
COMPOUND: CCCn1c(=O)ccc2cnc(Nc3ccc(F)c([N+](=O)[O-])c3)nc21 [Example 351]
pIC50: 6.15
--
COMPOUND: O=c1ccc2cnc(Nc3ccc(Cl)c(Cl)c3)nc2n1C1CCCC1 [Example 532]
pIC50: 6.29
--
COMPOUND: CCCn1c(=O)ccc2cnc(Nc3ccc(C(F)(F)F)cc3)nc21 [Example 361]
pIC50: 6.74

----------
ASSAYED_SYSTEM: cdc2/cyclinB (Homo sapiens, UniProt P06493)
PROTOCOL_SUMMARY: Cyclin-Dependent Kinase Assay cdc2/cyclinB
compounds and their reported IC50

COMPOUND: CCCCn1c(=O)ccc2cnc(Nc3ccc(C#N)c(NC(C)=O)c3)nc21 [Example 395]
ASSAYED_SYSTEM: cdc2/cyclinB (Homo sapiens, UniProt P06493)
VALUE_UNIT: nM
IC50: 220
//
COMPOUND: CCC(CC)n1c(=O)ccc2cnc(Nc3ccc(C)c(NS(C)(=O)=O)c3)nc21 [Example 519]
ASSAYED_SYSTEM: cdc2/cyclinB (Homo sapiens, UniProt P06493)
VALUE_UNIT: nM
IC50: 47
//
COMPOUND: CCC(CC)n1c(=O)ccc2cnc(Nc3ccc4[nH]ccc4c3)nc21 [Example 492]
ASSAYED_SYSTEM: cdc2/cyclinB (Homo sapiens, UniProt P06493)
VALUE_UNIT: nM
IC50: 145
//
COMPOUND: CCC(CC)n1c(=O)ccc2cnc(Nc3ccc4[nH]c(=O)[nH]c4c3)nc21 [Example 493]
ASSAYED_SYSTEM: cdc2/cyclinB (Homo sapiens, UniProt P06493)
VALUE_UNIT: nM
IC50: 14.5

----------
ASSAYED_SYSTEM: cdk4/D (Homo sapiens, UniProt P11802)
Sequence (P11802 whole entry): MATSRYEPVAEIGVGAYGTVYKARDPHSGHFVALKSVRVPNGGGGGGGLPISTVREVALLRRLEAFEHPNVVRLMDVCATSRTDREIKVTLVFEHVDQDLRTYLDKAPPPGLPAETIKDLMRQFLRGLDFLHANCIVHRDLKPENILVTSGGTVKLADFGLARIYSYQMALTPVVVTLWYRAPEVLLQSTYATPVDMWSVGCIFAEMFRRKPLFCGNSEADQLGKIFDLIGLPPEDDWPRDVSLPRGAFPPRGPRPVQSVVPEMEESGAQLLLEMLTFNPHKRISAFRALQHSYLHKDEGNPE
Sequence (P24385 whole entry, further chain): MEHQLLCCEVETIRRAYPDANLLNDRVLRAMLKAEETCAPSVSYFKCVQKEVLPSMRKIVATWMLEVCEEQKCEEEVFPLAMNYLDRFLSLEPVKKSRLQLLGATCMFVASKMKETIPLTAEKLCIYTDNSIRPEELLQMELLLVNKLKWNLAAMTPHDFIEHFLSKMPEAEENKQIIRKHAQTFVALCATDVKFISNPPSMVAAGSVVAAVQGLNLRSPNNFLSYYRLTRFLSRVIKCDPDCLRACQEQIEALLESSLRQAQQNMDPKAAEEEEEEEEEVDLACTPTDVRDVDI
PROTOCOL_SUMMARY: Cyclin-Dependent Kinase 4 (cdk4) Assay
Type: biochemical
APPLIED_CONDITIONS: read-out: cdk4/D IC50
pIC50: −log10 of the molar value.
This listing pairs compounds with measured pIC50.

COMPOUND: CCC(CC)n1c(=O)ccc2cnc(Nc3ccc(C)c(F)c3)nc21
ASSAYED_SYSTEM: cdk4/D (Homo sapiens, UniProt P11802)
pIC50: 6.78

COMPOUND: CCn1c(=O)ccc2cnc(Nc3ccc(NC(C)=O)c(C#N)c3)nc21
ASSAYED_SYSTEM: cdk4/D (Homo sapiens, UniProt P11802)
pIC50: 5.49

COMPOUND: CCCn1c(=O)ccc2cnc(Nc3cccc([N+](=O)[O-])c3)nc21
ASSAYED_SYSTEM: cdk4/D (Homo sapiens, UniProt P11802)
pIC50: 5.68

COMPOUND: CCC(CC)n1c(=O)ccc2cnc(Nc3cccc([N+](=O)[O-])c3)nc21
ASSAYED_SYSTEM: cdk4/D (Homo sapiens, UniProt P11802)
pIC50: 6.77

COMPOUND: COc1cc(Nc2ncc3ccc(=O)n(C(C)C)c3n2)cc(C(F)(F)F)c1
ASSAYED_SYSTEM: cdk4/D (Homo sapiens, UniProt P11802)
pIC50: 6.07

COMPOUND: CCC(CC)n1c(=O)ccc2cnc(Nc3ccc(OC)c(OC)c3)nc21
ASSAYED_SYSTEM: cdk4/D (Homo sapiens, UniProt P11802)
pIC50: 6.72

COMPOUND: CCC(C)n1c(=O)ccc2cnc(Nc3ccc(OC)cc3)nc21 (stereo not drawn)
ASSAYED_SYSTEM: cdk4/D (Homo sapiens, UniProt P11802)
pIC50: 6.96

COMPOUND: CCCn1c(=O)ccc2cnc(Nc3ccc(C)c(Cl)c3)nc21
ASSAYED_SYSTEM: cdk4/D (Homo sapiens, UniProt P11802)
pIC50: 7.24

COMPOUND: O=c1ccc2cnc(Nc3cc(Cl)c(O)c(Cl)c3)nc2n1C1CCCC1
ASSAYED_SYSTEM: cdk4/D (Homo sapiens, UniProt P11802)
pIC50: 6.15
